Give pIC50 for every item shown.
- target under test: Menin/Histone-lysine N-methyltransferase MLL (Homo sapiens)
- Sequence (O00255 whole entry): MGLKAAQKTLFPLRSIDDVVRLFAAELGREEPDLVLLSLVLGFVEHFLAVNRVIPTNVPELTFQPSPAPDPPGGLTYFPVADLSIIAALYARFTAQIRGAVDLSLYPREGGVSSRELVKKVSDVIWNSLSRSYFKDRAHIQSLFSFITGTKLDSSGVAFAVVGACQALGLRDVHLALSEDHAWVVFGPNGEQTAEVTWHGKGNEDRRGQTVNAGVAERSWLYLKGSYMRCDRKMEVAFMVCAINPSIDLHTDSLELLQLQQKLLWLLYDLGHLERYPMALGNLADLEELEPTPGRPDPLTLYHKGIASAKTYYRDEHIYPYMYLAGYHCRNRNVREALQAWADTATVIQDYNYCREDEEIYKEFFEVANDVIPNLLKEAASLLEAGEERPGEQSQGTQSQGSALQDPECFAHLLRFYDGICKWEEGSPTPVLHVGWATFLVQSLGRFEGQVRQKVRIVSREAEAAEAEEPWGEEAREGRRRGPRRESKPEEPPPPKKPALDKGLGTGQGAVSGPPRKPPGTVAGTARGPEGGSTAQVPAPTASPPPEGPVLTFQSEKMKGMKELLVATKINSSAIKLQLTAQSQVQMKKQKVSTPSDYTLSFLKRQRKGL
- Sequence (Q03164 1-2718 partner limits assumed): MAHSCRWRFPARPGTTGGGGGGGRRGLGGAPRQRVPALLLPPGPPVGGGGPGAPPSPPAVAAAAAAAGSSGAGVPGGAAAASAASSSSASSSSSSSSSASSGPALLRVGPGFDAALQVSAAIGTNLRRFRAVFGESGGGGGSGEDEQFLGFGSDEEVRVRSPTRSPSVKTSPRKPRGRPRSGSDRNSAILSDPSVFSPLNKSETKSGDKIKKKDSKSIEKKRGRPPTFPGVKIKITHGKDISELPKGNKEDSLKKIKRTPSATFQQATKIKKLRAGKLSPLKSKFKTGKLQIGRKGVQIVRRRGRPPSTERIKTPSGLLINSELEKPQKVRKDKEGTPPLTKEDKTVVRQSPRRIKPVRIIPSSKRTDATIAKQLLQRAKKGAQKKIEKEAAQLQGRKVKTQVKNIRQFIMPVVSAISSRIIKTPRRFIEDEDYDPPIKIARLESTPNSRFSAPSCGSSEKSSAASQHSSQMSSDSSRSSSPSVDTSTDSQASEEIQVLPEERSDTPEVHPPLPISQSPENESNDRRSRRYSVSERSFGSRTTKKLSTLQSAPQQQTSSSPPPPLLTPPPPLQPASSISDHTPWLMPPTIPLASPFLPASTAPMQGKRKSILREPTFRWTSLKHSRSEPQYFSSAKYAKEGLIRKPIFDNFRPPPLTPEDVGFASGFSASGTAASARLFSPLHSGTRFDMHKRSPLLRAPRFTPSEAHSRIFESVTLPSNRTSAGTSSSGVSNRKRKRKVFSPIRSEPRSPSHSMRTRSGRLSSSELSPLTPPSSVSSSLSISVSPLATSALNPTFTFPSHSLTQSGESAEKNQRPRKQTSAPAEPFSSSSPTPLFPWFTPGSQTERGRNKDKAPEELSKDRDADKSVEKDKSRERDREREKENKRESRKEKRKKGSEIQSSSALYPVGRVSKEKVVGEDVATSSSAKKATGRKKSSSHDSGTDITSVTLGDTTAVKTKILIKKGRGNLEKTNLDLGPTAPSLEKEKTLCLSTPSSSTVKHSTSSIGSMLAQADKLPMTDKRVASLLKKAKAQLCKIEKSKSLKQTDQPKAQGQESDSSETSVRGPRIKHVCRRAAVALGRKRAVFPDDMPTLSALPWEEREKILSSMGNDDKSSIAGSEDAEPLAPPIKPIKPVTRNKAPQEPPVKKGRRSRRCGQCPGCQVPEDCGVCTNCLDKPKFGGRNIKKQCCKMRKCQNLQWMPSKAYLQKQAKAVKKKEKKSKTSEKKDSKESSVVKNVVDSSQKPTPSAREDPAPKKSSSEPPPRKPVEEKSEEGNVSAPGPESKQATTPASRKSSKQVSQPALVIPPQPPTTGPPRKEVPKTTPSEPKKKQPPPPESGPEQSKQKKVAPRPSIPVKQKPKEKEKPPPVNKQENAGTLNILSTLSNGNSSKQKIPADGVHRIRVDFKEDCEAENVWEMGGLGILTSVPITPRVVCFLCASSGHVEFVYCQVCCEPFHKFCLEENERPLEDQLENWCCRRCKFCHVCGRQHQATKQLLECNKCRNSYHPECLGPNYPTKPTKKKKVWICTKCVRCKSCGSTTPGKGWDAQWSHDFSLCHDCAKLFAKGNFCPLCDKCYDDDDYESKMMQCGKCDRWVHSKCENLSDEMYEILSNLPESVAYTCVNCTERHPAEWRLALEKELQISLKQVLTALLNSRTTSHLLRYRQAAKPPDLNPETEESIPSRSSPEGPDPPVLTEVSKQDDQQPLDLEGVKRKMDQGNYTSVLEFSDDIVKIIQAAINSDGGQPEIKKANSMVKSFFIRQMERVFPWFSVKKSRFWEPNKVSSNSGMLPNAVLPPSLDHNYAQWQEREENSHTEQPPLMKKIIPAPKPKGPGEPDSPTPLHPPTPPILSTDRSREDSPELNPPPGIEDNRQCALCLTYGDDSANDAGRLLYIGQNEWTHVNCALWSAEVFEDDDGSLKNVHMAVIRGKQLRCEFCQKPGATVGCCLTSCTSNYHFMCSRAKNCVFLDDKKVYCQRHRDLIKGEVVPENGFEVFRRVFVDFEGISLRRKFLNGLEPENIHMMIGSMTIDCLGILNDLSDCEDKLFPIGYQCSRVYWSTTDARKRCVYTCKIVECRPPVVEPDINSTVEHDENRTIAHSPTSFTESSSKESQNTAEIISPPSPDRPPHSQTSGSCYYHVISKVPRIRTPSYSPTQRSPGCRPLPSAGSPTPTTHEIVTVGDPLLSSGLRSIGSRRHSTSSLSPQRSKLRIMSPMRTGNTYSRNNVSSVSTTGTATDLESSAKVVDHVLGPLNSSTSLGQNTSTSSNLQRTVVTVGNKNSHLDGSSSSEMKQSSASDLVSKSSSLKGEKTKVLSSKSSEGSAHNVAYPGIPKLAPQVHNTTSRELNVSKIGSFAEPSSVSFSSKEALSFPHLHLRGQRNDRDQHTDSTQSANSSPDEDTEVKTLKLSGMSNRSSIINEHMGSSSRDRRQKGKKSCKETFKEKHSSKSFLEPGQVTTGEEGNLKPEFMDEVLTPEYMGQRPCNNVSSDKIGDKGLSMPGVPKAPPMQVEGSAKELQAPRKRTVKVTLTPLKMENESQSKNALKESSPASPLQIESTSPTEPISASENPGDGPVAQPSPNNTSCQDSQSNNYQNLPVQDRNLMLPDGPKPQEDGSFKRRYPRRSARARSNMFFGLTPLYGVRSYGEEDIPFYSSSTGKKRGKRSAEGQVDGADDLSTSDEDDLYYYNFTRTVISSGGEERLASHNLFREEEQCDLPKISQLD
- Sequence (Q03164 2719-3969 partner limits assumed): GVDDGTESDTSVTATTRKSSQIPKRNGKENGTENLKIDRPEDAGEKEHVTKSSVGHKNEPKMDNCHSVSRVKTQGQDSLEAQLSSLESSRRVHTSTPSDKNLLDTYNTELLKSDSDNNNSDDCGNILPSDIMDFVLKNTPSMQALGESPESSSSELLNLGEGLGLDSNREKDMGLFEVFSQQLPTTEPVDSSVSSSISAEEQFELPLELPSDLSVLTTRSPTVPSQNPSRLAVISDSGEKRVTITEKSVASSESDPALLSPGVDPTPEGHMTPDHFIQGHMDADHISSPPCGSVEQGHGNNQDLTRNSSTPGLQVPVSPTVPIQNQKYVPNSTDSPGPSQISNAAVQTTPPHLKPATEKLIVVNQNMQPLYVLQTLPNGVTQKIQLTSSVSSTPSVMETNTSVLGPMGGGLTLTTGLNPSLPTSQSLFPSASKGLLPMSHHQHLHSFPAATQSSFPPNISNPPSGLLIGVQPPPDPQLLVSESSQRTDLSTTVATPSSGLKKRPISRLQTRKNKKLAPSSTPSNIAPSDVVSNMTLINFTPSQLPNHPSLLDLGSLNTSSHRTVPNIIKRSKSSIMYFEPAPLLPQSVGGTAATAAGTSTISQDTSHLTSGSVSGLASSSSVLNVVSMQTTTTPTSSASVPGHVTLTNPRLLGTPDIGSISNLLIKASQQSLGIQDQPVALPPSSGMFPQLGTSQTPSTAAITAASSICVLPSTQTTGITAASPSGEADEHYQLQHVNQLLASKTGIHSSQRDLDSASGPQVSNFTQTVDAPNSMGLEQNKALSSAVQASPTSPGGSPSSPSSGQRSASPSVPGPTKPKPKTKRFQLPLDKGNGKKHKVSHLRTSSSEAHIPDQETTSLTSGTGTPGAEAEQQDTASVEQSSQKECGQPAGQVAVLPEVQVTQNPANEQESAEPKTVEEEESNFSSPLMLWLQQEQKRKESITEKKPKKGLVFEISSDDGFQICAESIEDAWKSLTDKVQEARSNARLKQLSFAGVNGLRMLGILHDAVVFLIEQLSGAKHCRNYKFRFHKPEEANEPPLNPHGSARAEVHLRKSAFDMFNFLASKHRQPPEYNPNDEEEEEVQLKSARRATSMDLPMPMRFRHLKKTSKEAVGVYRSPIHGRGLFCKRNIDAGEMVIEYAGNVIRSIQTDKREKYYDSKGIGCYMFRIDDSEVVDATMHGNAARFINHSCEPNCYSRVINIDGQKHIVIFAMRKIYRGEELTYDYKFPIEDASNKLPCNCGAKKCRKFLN
- test protocol: Inhibition of menin (unknown origin)-fluorescein-labeled MLL1 (unknown origin) after 1 hr by fluorescence polarization assay
- Format: protein assay
Answers are plain numbers, as −log10 of the molar value.

CCCc1cc2c(N3CCN(c4nnc(C(F)(F)F)[nH]4)CC3)ncnc2s1 = 3.70
FC(F)(F)c1nnc(N2CCN(c3ncnc4sc(C5CC5)cc34)CC2)s1 = 5.70
CSc1cc2c(N3CCN(c4nnc(C(F)(F)F)s4)CC3)ncnc2s1 = 4.70

I need pIC50 for every entry listed below, if you could help.
1. CC1(C)CN=C(N2CCN(c3ncnc4sc(CCCl)cc34)CC2)S1
2. CCc1cc2c(N3CCN(c4nnc(C(F)(F)F)s4)CC3)ncnc2s1
3. CCCc1cc2c(N3CCN(c4nnc(C(F)(F)F)s4)CC3)ncnc2s1
4. FC(F)(F)Cc1cc2c(N3CCN(c4nnc(C(F)(F)F)o4)CC3)ncnc2s1

[6.71, 5.89, 6.19, 5.85]
